assay: cytotoxic activity on peritoneal macrophages; type: cell-based, Swiss mice; conditions: Swiss, mouse, Table 1 (L. amazonensis series)
VALUE_KIND: CC50

INSERT INTO measurements (structure_notation, meas_value) VALUES
  ('O=C(O)c1ccc(CN/C(=N/C(=O)c2ccccc2)Nc2ccc(Br)cc2)cc1', '> 1000 µM');

----------
assay: cytotoxic activity on peritoneal macrophages; format: cell-based, Swiss mice; conditions: Swiss, mouse, peritoneal macrophages, Table 2 (L. infantum series)
Residues, ends and D or L forms follow the SMILES beside them. *: point of attachment. X1 = O=C(/N=C(/NCc1ccc(C(=O)*)cc1)Nc1ccc(Br)cc1)c1ccccc1
Parameter: CC50. Scope: all listed entries.
VALUE_KIND: CC50

INSERT INTO measurements (compound, meas_value) VALUES
  ('O=C(O)c1ccc(CN/C(=N/C(=O)c2ccccc2)Nc2ccc(Br)cc2)cc1', '> 2 mM'),
  ('N=C(N)NCCC[C@H](NC(=O)[C@H](CCCNC(=N)N)NC(=O)[C@H](CCC(N)=O)NC(=O)[C@H](CCCNC(=N)N)NC(=O)[C@H](CCCNC(=N)N)NC(=O)[C@H](CCCCN)NC(=O)[C@H](CCCCN)NC(=O)[C@H](CCCNC(=N)N)NC(=O)CNC(=O)[C@@H](N)Cc1ccc(O)cc1)C(=O)O [TAT, reference compound] (H-YGRKKRRQRR-OH; N-terminus assumed)', '> 2 mM'),
  ('N=C(N)NCCC[C@H](NC(=O)[C@H](CCCNC(=N)N)NC(=O)[C@H](CCC(N)=O)NC(=O)[C@H](CCCNC(=N)N)NC(=O)[C@H](CCCNC(=N)N)NC(=O)[C@H](CCCCN)NC(=O)[C@H](CCCCN)NC(=O)[C@H](CCCNC(=N)N)NC(=O)CNC(=O)[C@H](Cc1ccc(O)cc1)NC(=O)c1ccc(CN/C(=N/C(=O)c2ccccc2)Nc2ccc(Br)cc2)cc1)C(=O)O [GVL1-TAT] (X1-YGRKKRRQRR-OH)', '> 2 mM');
